# experimental_target: Hexose transporter 1 (Plasmodium falciparum)
# test_description: ST_JUDE_LEISH: Cytotoxicity at 2uM final concentration against transgenic Leishmania Mexicana promastigotes LmPfHT that are glucose transport deficient and complemented with the Plasmodium falciparum hexose transporter. Activity is measured by DNA content using SYBR green in vitro
# Assay type: functional
reported_endpoint: inhibition (%)
Response body: numeric value in %, unit text excluded.

Some solved entries appear below for comparison.
1. COc1cccc(NC(=O)c2cc(C(=O)Nc3cccc(OC)c3)cc([N+](=O)[O-])c2)c1 = 3.98
2. N#Cc1cccc(NC(=O)c2cccc(S(=O)(=O)NC3CCN(CC4CCCCC4)C3)c2)c1 (centres undefined) = 1.11
3. O=C(Nc1ccc(Br)c(C(F)(F)F)c1)c1cccc([N+](=O)[O-])c1 = 2.2
4. O=C(Nc1ccc(Cl)c(Cl)c1)N1CCC(CNCc2cccc([N+](=O)[O-])c2)CC1 = 4.18
5. c1ccc2cc3c(Nc4ccc(N5CCCCCC5)cc4)ccnc3cc2c1 = 0.23
6. CN(Cc1cccc(C#N)c1)C1CCN(c2cc(NC(=O)c3cccc(F)c3)ccn2)CC1 = 5.32
7. CCCNCc1ccc(-c2ccc(CN(CCOC)C(=O)CC3CCCC3=O)cc2)nc1 (centres undefined) = 0.07
8. C=CCc1cc(SC)ccc1Oc1ccc(N)cc1 = 2.06

Proceeding to the next compound to report its inhibition.
q: inhibition lookup needed for `CN(Cc1ccc(-c2ccc(C(F)(F)F)cc2)cc1)C(=O)Cn1c(CCc2cccc(F)c2F)cc(=O)c2ccc(OCCCN3CCCCC3)cc21` , thanks.
a: 0.66

* * *

Catalogue of inhibition values
# experimental_target: Solute carrier family 2, facilitated glucose transporter member 1 (Homo sapiens)
# test_description: ST_JUDE_LEISH: Cytotoxicity at 2uM final concentration against transgenic Leishmania Mexicana promastigotes LmGLUT1 that are glucose transport deficient and complemented with the human glucose transporter GLUT1. Activity is measured by DNA content using SYBR green in vitro
# Assay type: functional
Please give a number only; it is taken to be in %.

1) COc1ccc2nccc(N3CCC(NCCNCc4cc5c(cn4)OCCO5)C3)c2n1 (configuration not stated) = 2.14

q: For Solute carrier family 2, facilitated glucose transporter member 1 (Homo sapiens), provide inhibition of `O=C(NCCN1CCCC1)c1ccc(-c2ccc(-c3nc4ccccc4[nH]3)s2)cc1` please.
a: 0.96

q: Under Solute carrier family 2, facilitated glucose transporter member 1 (Homo sapiens): inhibition value of `COc1ccc(-c2ccc(NC(=O)c3ccc(Cl)cc3)cc2)cc1CN1CCC(O)CC1` ?
a: 3.31

q: Give Solute carrier family 2, facilitated glucose transporter member 1 (Homo sapiens) inhibition for `c1cc(-c2ccc(CN3CCN(c4ccncc4)CC3)cc2)cc(-c2nc3ccccc3[nH]2)c1`
a: 1.81

q: Please state recorded inhibition (tested on Solute carrier family 2, facilitated glucose transporter member 1 (Homo sapiens)) of `CN1CCN(CCCNCc2ccccc2-c2cccc(CNCc3ccc4c(c3)OCO4)c2)CC1`
a: -1.31

q: Identify the measured inhibition of COc1cc(NCC(O)CNc2cc(Cl)nc3ccccc23)nc2ccccc12 (configuration not stated) for Solute carrier family 2, facilitated glucose transporter member 1 (Homo sapiens).
a: 8.65

q: Which inhibition is reported with Solute carrier family 2, facilitated glucose transporter member 1 (Homo sapiens) for this entry: `Cc1cc(=NN=Cc2ccccn2)c2cc(C(F)(F)F)ccc2[nH]1` ?
a: -0.43
